Molecular target: Estrogen receptor (Homo sapiens)
Sequence (P03372 whole entry): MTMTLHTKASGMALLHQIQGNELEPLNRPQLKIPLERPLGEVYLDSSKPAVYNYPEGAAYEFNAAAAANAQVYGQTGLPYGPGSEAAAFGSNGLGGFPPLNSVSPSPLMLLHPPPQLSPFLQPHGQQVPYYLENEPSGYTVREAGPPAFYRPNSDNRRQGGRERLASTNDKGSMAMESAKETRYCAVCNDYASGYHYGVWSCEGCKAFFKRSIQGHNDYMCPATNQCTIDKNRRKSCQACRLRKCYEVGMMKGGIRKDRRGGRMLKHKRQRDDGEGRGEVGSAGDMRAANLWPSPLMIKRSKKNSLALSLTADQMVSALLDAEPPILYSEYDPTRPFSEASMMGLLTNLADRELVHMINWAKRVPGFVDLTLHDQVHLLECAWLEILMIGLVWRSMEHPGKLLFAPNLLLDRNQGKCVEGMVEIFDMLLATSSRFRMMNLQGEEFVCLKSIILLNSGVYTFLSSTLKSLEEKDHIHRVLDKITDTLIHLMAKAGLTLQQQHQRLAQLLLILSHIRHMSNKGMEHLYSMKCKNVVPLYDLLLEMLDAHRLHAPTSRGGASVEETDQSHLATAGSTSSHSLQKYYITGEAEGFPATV
The following compounds were reported with IC50 values on Estrogen receptor (Homo sapiens) in different studies.
Returns: string. Value is yes (1) if measured IC50 is below 600 nM, and no (0) if it is greater than or equal to it.

Use the examples below as a reference point.
C[C@@H]1C(=O)c2c(O)cc(O)cc2O[C@@H]1c1ccc(OCCN2CCCCC2)cc1	yes (1)
Cc1c(-c2ccc(O)cc2)n(Cc2ccc(OCCN3CC4CCC3C4)cc2)c2ccc(O)cc12 (stereo not drawn)	yes (1)
Oc1ccc(-c2ccc3cc(O)ccc3c2)c(F)c1	yes (1)
O=c1c2ccc(O)cc2ncn1-c1ccc(O)cc1	no (0)
CCc1cc(-c2ccc(O)cc2)nc2ccc(O)cc12	no (0)

Strictly below 600 nM: is that where IC50 of "Cc1c(O)ccc2c1c(=O)oc1c(Br)c(O)ccc12" sits?
no (0)

Does "CCCC[C@@]12CCC(=O)C(c3cccs3)=C1c1ccc3nn[nH]c3c1C2" have IC50 strictly under 600 nM?
yes (1)

Please indicate whether the reported IC50 of "O=c1c2ccc(O)cc2oc2c1oc1ccccc12" is strictly below 600 nM.
no (0)
